Biological target: immobilized Aβ16 (Homo sapiens, UniProt P05067)
Construct: purchased Biopeptide (San Diego, CA, USA); host or cells: chemical synthesis
Sequence (P05067 with tags, fused parts or gaps limits assumed): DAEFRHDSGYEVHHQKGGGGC
Assay: Direct binding assay: surface plasmon resonance, tetrapeptides over immobilized Aβ16-G4-C
Conditions: Table S2; SPR, immobilized Aβ16, 25 °C, 10 mM HEPES pH 6.8, mean±SD of three independent measurements; read-out: Kd × 10^4 M
Where a SMILES comes first, the peptide text is derived from it.
Give pKd for every item shown.
Numbers only, as −log10 of the molar value.

compound	pKd
CC(=O)N[C@@H](CCCCN)C(=O)N[C@@H](C)C(=O)N[C@@H](CCC(=O)O)C(=O)N[C@@H](CC(=O)O)C(N)=O [#9, Ac-KAED-NH2] (Ac-KAED-NH2)	2.48
CC(=O)N[C@@H](CC(=O)O)C(=O)N[C@@H](CC(=O)O)C(=O)N[C@@H](C)C(=O)N[C@@H](CCCCN)C(N)=O [#4, Ac-DDAK-NH2] (Ac-DDAK-NH2)	2.86
CC(=O)N[C@@H](CC(=O)O)C(=O)N[C@@H](CCC(=O)O)C(=O)N[C@@H](C)C(=O)N[C@@H](CCCNC(=N)N)C(N)=O [#12, Ac-DEAR-NH2] (Ac-DEAR-NH2)	2.70

Give pKd for each of the items listed below.
1. CC(=O)N[C@@H](CCCCN)C(=O)N[C@@H](C)C(=O)N[C@@H](CC(=O)O)C(=O)N[C@@H](CCC(=O)O)C(N)=O [#15, Ac-KADE-NH2] (Ac-KADE-NH2)
2. CC(=O)N[C@@H](CCCNC(=N)N)C(=O)N[C@@H](C)C(=O)N[C@@H](CCC(=O)O)C(=O)N[C@@H](CCC(=O)O)C(N)=O [Ac-RAEE-NH2] (Ac-RAEE-NH2)
3. CC(=O)N[C@@H](Cc1c[nH]cn1)C(=O)N[C@@H](C)C(=O)N[C@@H](CC(=O)O)C(=O)N[C@@H](CC(=O)O)C(N)=O [#1, Ac-HADD-NH2] (Ac-HADD-NH2)

[2.35, 2.11, 2.49]
